# TEST NAME: in vitro
# CONDITION CONTEXT: human, hela cells, % viability
Entries and their measured viability at 28.5 h, 10 µM follow.

Example entries and their recorded answers appear below.
1. Cc1cnc2[nH]c(C(F)(F)F)c(CN3CCN(C)CC3)c2c1 :: 92.3%
2. c1cc(-c2nccnc2OCCn2ccnc2)ccn1 :: 87%

Read off the recorded viability at 28.5 h, 10 µM for CCOc1cc(S(=O)(=O)NCc2ccccn2)ccc1Cl
99.2%

Read off the recorded viability at 28.5 h, 10 µM for Cc1ccc(C(=O)N2CCC(C(=O)NC(c3ccccc3)c3ccc4ccccc4n3)CC2)cc1 (centres unmarked)
87.9%

Read off the recorded viability at 28.5 h, 10 µM for CCn1cc(C(=O)N2CCC(C(=O)OC)CC2)c(=O)c2ccc(C)nc21
110%

Read off the recorded viability at 28.5 h, 10 µM for CCOC(=O)C1(C2CCCCC2)CCN(C(=O)c2ccc(OC(F)(F)F)cc2)CC1
96.2%

Read off the recorded viability at 28.5 h, 10 µM for COc1ccc(S(=O)(=O)NC(C)C(=O)NCc2ccncc2)cc1C (centres unmarked)
101%

Read off the recorded viability at 28.5 h, 10 µM for Cc1noc(C)c1C(=O)Nc1sc2c(c1C(=O)NCc1ccco1)CCCCCC2
99.3%

Read off the recorded viability at 28.5 h, 10 µM for CCCc1occc1C(=O)N1CCOCC1C(=O)O (centres unmarked)
97.9%

Read off the recorded viability at 28.5 h, 10 µM for NS(=O)(=O)c1ccc(CCNC(=O)COc2ccc(Cl)cc2Cl)cc1
90.2%

Read off the recorded viability at 28.5 h, 10 µM for Cc1ccc(-c2csc(NC(=O)c3c(C)noc3C)c2C(=O)NC2CC2)cc1
95.1%

Read off the recorded viability at 28.5 h, 10 µM for Nc1ncnc2c1nc1n2[C@@H]2O[C@H](C1)[C@H](O)C2O (some centres unmarked)
108%

Read off the recorded viability at 28.5 h, 10 µM for COc1cc(Nc2cncc(-c3ccc(N)cc3)n2)cc(OC)c1OC
56.2%

Read off the recorded viability at 28.5 h, 10 µM for O=C1COc2ccccc2C/C=C/CC2(CCN(C(=O)c3n[nH]c4c3CCC4)CC2)CN1
111%

Read off the recorded viability at 28.5 h, 10 µM for CN1CCN(c2ccccc2NC(=S)NC(=O)c2ccco2)CC1
85.2%

Read off the recorded viability at 28.5 h, 10 µM for COc1ccc(C2=Nc3ccc(Br)cc3C(c3ccccc3)N2CC(=O)NN)cc1 (centres unmarked)
95.8%

Read off the recorded viability at 28.5 h, 10 µM for COc1ccc2sc(C)nc2c1
101%

Read off the recorded viability at 28.5 h, 10 µM for CC(C)(C)c1ccc(NC(=O)C(=O)NCCCn2ccnc2)cc1
108%

Read off the recorded viability at 28.5 h, 10 µM for Nc1ncnc(NCCCn2ccnc2)c1[N+](=O)[O-]
93.5%

Read off the recorded viability at 28.5 h, 10 µM for Cc1cc(C)c(C)c(S(=O)(=O)NCc2ccc(C(=O)Nc3ccncc3)cc2)c1C
90.5%

* * *

# TEST NAME: in vitro
# CONDITION CONTEXT: human, hela cells, % viability
Entries and their measured viability at 28.5 h, 10 µM follow.
Express it in %; write the number only.

Example entries and their recorded answers appear below.
1. Cc1ccc(S(=O)(=O)NCCSCc2cccc(Cl)c2)cc1[N+](=O)[O-] [CBK264116] :: 93.4
2. CC(=O)c1ccc(-c2ccc(C(=O)NCC3COc4ccccc4O3)c(NCc3cccnc3)n2)s1 (stereo not shown) [CBK076608] :: 97.9
3. Cc1ccc(-c2nc3ccc(C)cc3c(C(=O)OCC(=O)c3cccc([N+](=O)[O-])c3)c2C)cc1 [CBK264436] :: 104
4. O=C(O)c1ccc(OCCNS(=O)(=O)c2ccc3oc4ccccc4c3c2)cc1 [CBK299797] :: 90.8
5. Cn1ccnc1C(NC(=O)c1cccnc1)c1ccc(F)c(F)c1 (stereo not shown) [CBK283807] :: 100
6. O=C(CN1C(=O)N2CCCN=C2c2ccccc21)NCc1ccccc1 [CBK284403] :: 84.8
7. COc1ccc2c(c1)C(=O)NC1(CC2)CCN(Cc2ccccc2)C1 (stereo not shown) [CBK283343] :: 95.2
8. Cc1ccc(C)c(NC(=O)CCc2c(C)nn3cnnc3c2C)c1 [CBK304358] :: 90

Read off the recorded viability at 28.5 h, 10 µM for O=C(O)CSc1nnc(SCc2cccc3ccccc23)s1 [CBK266215]
81.4

Read off the recorded viability at 28.5 h, 10 µM for Cc1cc(NC(=O)c2c(F)cccc2F)c2ccccc2n1 [CBK122737]
92.7

* * *

Entries and their measured viability at 28.5 h, 10 µM follow.
# TEST NAME: in vitro
# CONDITION CONTEXT: human, hela cells, % viability
Express it in %; write the number only.

1) COc1ccc(CCN2CN=C(SCc3ccc(Cl)cc3)NC2)cc1OC [CBK074665C] :: 95.3
2) CCCc1[nH]n(CC(=O)OCC)c(=O)c1Cc1c(Cl)cccc1Cl :: 94.4

Read off the recorded viability at 28.5 h, 10 µM for COC(=O)Cn1cc(CN2CC3CCCN3C[C@H]2C)c2ccccc21 (some centres unmarked)
92.2

Read off the recorded viability at 28.5 h, 10 µM for O=C(O)CN1C(=O)C2(CC(=O)N(Cc3ccccc3)C2=O)c2cc(F)ccc21 (centres unmarked)
99.3

Read off the recorded viability at 28.5 h, 10 µM for CC(=O)NC(CC(=O)N1CCc2sccc2C1C)c1ccc(C)cc1 (centres unmarked)
89.2

Read off the recorded viability at 28.5 h, 10 µM for CC(=O)Nc1nc(-c2ccccc2C)ccc1C(=O)N(C)C
94.6

Read off the recorded viability at 28.5 h, 10 µM for O=C(O)CCCC(=O)NC(Cc1ccccc1)C(=O)Nc1ccc([N+](=O)[O-])cc1 (centres unmarked)
84.5

Read off the recorded viability at 28.5 h, 10 µM for Cc1nonc1CC(=O)N1CCC[C@@H]2[C@H]1C/C=C/Cc1ccccc1OCC(=O)N2C
88.3

Read off the recorded viability at 28.5 h, 10 µM for Cc1ccc2[nH]c(Cc3ccc(NC(=O)c4nc5ccccc5n(C)c4=O)cc3)nc2c1
83.8

Read off the recorded viability at 28.5 h, 10 µM for O=C1Nc2cc(Cl)ccc2C2=NCCCN12
81.5

* * *

Entries and their measured viability at 28.5 h, 10 µM follow.
# TEST NAME: in vitro
# CONDITION CONTEXT: human, hela cells, % viability
Express it in %; write the number only.

Example entries and their recorded answers appear below.
1. COC(=O)[C@H]1CCc2ccccc2N1C(=O)C1CCC1 [CBK285478] :: 100
2. COc1ccc(S(=O)(=O)NCc2ccccn2)cc1NC(C)=O [CBK269554] :: 103
3. Cc1ccc(Cl)c(N2CCN(CCCn3c(=S)[nH]c4ccccc4c3=O)CC2)c1 [CBK268011] :: 90
4. O=C(O)CCCC(=O)N(c1ccccc1)c1ccccc1 [CBK286901] :: 80.2
5. O=C(NC(=O)c1ccc(F)c(Cl)c1)Nc1nnc(C(F)(F)F)s1 [CBK076830] :: 88.6
6. C[C@H](Nc1cncc(-c2ccc3ccccc3c2)n1)c1ccccc1 [CBK065799] :: 108

Read off the recorded viability at 28.5 h, 10 µM for O=C(O)Cc1sc(NCCN2CCOCC2)nc1-c1ccccc1 [CBK200113T]
88.7

Read off the recorded viability at 28.5 h, 10 µM for O=C(N[C@H]1C[C@H]2C(=O)Nc3ccccc3C(=O)N2C1)c1ccccc1 [CBK289354]
103

Read off the recorded viability at 28.5 h, 10 µM for CNc1nc(NC(C#N)c2ccccc2)ncc1N (stereo not shown) [CBK174783]
107

Read off the recorded viability at 28.5 h, 10 µM for O=C(O)c1ccc(OCCN2CCOCC2)cc1 [CBK287038]
94.5

* * *

# TEST NAME: in vitro
# CONDITION CONTEXT: human, hela cells, % viability
Note to self: viability at 28.5 h, 10 µM under 90% means criterion met, ties and anything higher get criterion not met.

Answered examples (2):
1. C[N+](C)(C)CCCCOC(c1ccccc1)c1ccccc1 [CBK261076I] :: criterion not met
2. O=C1Nc2ccc(Br)cc2C(=O)N2CCN(C(=O)c3ccccc3)C[C@H]12 [CBK289589] :: criterion not met

// next entry
Threshold test, viability at 28.5 h, 10 µM < 90%: COc1ccc(C2CCCC(N(CCN(C)C)C(=O)Nc3ccc(F)c(F)c3)C2)cc1OC (centres unmarked) [CBK059339C]
criterion met

* * *

# TEST NAME: in vitro
# CONDITION CONTEXT: human, hela cells, % viability, bulk resorufin, single well
Entries and their measured viability at 28.5 h, 10 µM follow.
Express it in %; write the number only.

1) CCOC(=O)N1CCC2(CC1)OCc1cc(-c3cccc(F)c3)ccc1O2 :: 104
2) Cc1ccc(Cn2nc(C(=O)Nc3cc(C)nn3C)c3ccccc32)cc1 :: 77.9

Read off the recorded viability at 28.5 h, 10 µM for COc1cc(Br)cc(CN2CCN(Cc3ccccc3)CC2)c1O
108

Read off the recorded viability at 28.5 h, 10 µM for CCCN(CCCc1ccccc1)C1Cc2cc(OC)c(OC)cc2C1 [CBK017596C]
96.6

Read off the recorded viability at 28.5 h, 10 µM for O=C1NC(=S)NC(=O)C1=Cc1cn(-c2ccccc2)nc1-c1ccc(-c2ccc([N+](=O)[O-])cc2)o1
107

Read off the recorded viability at 28.5 h, 10 µM for CCCC(=O)C1(c2ccccc2)CCNCC1 [CBK022936C]
89.3

Read off the recorded viability at 28.5 h, 10 µM for COc1ccc(-c2ccc3c(c2)COC2(CCNCC2)O3)c(OC)c1
91.1

Read off the recorded viability at 28.5 h, 10 µM for O=C1NC(=S)NC(=O)C1=CNCCc1c[nH]c2ccccc12
110

Read off the recorded viability at 28.5 h, 10 µM for O=C(Cc1ccc(Cl)c(Cl)c1)Nc1ccccc1-c1ccc2c(c1)COC1(CCNCC1)O2
100

Read off the recorded viability at 28.5 h, 10 µM for Cc1cccc(N2C(=O)NC(=O)/C(=C/NC3CCN(Cc4ccccc4)CC3)C2=O)c1
92.2

Read off the recorded viability at 28.5 h, 10 µM for O=C1NC(=O)N(c2ccc3c(c2)OCO3)C(=O)/C1=C/c1ccc(OCc2cccc(C(=O)O)c2)cc1
106

Read off the recorded viability at 28.5 h, 10 µM for COc1ccccc1CCNCc1ccc([N+](=O)[O-])cc1
93.3

Read off the recorded viability at 28.5 h, 10 µM for N#CC1(c2ccccc2)CCN(C(=O)COc2ccc(F)cc2)CC1
92.6

Read off the recorded viability at 28.5 h, 10 µM for CC(=O)Nc1cccc(-c2ccc3c(c2)COC2(CCNCC2)O3)c1
94.5

Read off the recorded viability at 28.5 h, 10 µM for COc1ccc([C@]23CC[C@H](NC(=O)Nc4ccc(C#N)c(Cl)c4)C[C@H]2N(C)CC3)cc1OC [CBK066928T]
94.9

Read off the recorded viability at 28.5 h, 10 µM for c1csc(-c2ccc3c(c2)COC2(CCNCC2)O3)c1
90.3

Read off the recorded viability at 28.5 h, 10 µM for CCOC(=O)c1ccc(NC(=O)c2c(O)[nH]c(=O)[nH]c2=O)cc1
84.7
